Assign Percent Effect to each entry below.
tested on: Wolbachia pipientis; assay: Anti-Wolbachia Cell-Based Screen; type: functional; parameters: scale not given: in the data most compounds retested in dose-response had high values; conditions: 5 µM
Out of some 48,000 compounds screened, about 13,000 (27%) showed an effect of 50% or more. The list shows a part of the results.
Give bare numbers, in %.

Use the examples below as a reference point.
So what's the measured Percent Effect for this one? Cc1cnn(CC2CCCN2C(=O)c2nccc3ccccc23)c1 (stereo not drawn)
-8.549

So what's the measured Percent Effect for this one? CC(=O)N1CCCC(c2cccc(-n3ccnc3)n2)C1 (stereo not drawn)
108.7

So what's the measured Percent Effect for this one? O=C(c1cc[nH]n1)N1CCCC(c2cccc(-n3ccnc3)n2)C1 (stereo not drawn)
-0.007784

So what's the measured Percent Effect for this one? Cc1cc(C(=O)N2CCCC2)ccc1NCCOCC(F)(F)F
-22.68

So what's the measured Percent Effect for this one? Cc1cnn(CC2CCCN2C(=O)c2ccc(C(N)=O)cn2)c1 (stereo not drawn)
-6.228

The following molecules each have a reported value; give each one's Percent Effect.
1. CS(=O)(=O)Nc1cccc(CNC(=O)CCC(=O)c2cccs2)c1
2. CN(Cc1ccco1)c1ccc(C(=O)NCCCc2ccccn2)cn1
3. CCOc1ccc(NC(=O)N2CCOC(C(N)=O)C2)cc1Cl (stereo not drawn)

1.298
-0.2765
142.8

====

test system: Wolbachia pipientis; assay: Anti-Wolbachia Cell-Based Screen; type: functional; set-up: scale not given: in the data most compounds retested in dose-response had high values; details: 5 µM
Among all 48,000 compounds or so, about 13,000 (27%) showed an effect of 50% or more. This is one part of the list.
Result type: Percent Effect (%)
Give bare numbers, in %.

Use the examples below as a reference point.
Any idea what Percent Effect came out for CC(C(=O)NCc1ccc(N2CCNC(=O)C2)cc1)n1cncn1 (configuration not stated) on Wolbachia pipientis?
-3.383

Any idea what Percent Effect came out for CCC(C)NC(=O)CCn1ccc(C)n1 (configuration not stated) on Wolbachia pipientis?
122.6

Any idea what Percent Effect came out for CN(C)CC(=O)N1CCOCC2(C1)CN(c1ccccc1)C(=O)CO2 (configuration not stated) on Wolbachia pipientis?
-12.92

Any idea what Percent Effect came out for CCC[C@H]1CN(S(=O)(=O)c2c(C)noc2C)C[C@@H]1N on Wolbachia pipientis?
-20.84

Any idea what Percent Effect came out for Cc1cccnc1NC(=O)NCc1ccc(N2CCNC(=O)C2)cc1 on Wolbachia pipientis?
-1.064

The following compounds each have a reported value; give each one's Percent Effect.
1. Cc1cccc(NC(=O)CN(C)C(=O)c2ccc(OC(C)C)nc2)n1
2. O=C(NC1CC1)N1CCOCC2(C1)CN(c1ccccc1)C(=O)CO2 (configuration not stated)
3. CC(=O)N1CC(=O)N(c2ccccc2)CC12CCN(CC1CC1)C2.O=C(O)C(F)(F)F (configuration not stated)
4. O=C(CCN1C[C@H]2CC[C@@H]1CN(c1ncccn1)C2)NCc1ccco1
5. Cc1ccc(OCC(=O)NCc2ccco2)nc1
6. Cc1ccn(CCC(=O)NCc2ccco2)n1
7. Cc1cc(N(C)C)nc(N2CCCC2c2cc(C)on2)n1 (configuration not stated)

1. 4.087
2. 106.4
3. -3.194
4. -5.213
5. -11.41
6. 113.3
7. 41.35

The following compounds each have a reported value; give each one's Percent Effect.
1. CC(O)CNC(=O)NCc1ccc(N2CCNC(=O)C2)cc1 (configuration not stated)
2. Cc1ccn(CCC(=O)NCc2ccc(C)o2)n1
3. CCc1cc(N(C)Cc2[nH]nc3c2CCC3)nc(N2CCOCC2)n1
4. O=C(Cc1ccccn1)NCC1OCCc2cn(CC3CC3)nc21.O=C(O)C(F)(F)F (configuration not stated)
5. CC(=O)N1CC(=O)N(c2ccccc2)CC12CCN(Cc1nccs1)C2.O=C(O)C(F)(F)F (configuration not stated)
6. CC(C)Oc1ccccc1NC(=O)N1CCC(n2cncn2)CC1
7. CCN(Cc1nccn1C)C(=O)c1ccc(NCc2ccc(C)o2)nc1
8. Cc1cc(N(C)C)nc(N2CCCC2c2ccccn2)n1 (configuration not stated)

1. -1.608
2. 96.24
3. 17.45
4. -22.67
5. -14.31
6. 90.39
7. 12.06
8. 92.86

The following compounds each have a reported value; give each one's Percent Effect.
1. Cc1ccc(CNC(=O)CCC(=O)NCCC(C)C)o1
2. O=C(c1ccc[nH]1)N1CCOCC2(C1)CN(c1ccccc1)C(=O)CO2 (configuration not stated)
3. CC(=O)N1CC(=O)N(c2ccsc2)CC12CCN(Cc1ccoc1)C2 (configuration not stated)
4. O=C(NCc1ccc(Br)cc1)NCC1CCOC1 (configuration not stated)
5. CCSc1cncc(NCc2ccc(N3CCNC(=O)C3)cc2)n1
6. Cl.O=S(=O)(c1ccc(Cl)cc1)N1CCc2nc(C3CCNCC3)ncc2C1
7. Cc1ccc(OCC(=O)NCC(F)(F)F)nc1
8. c1ccc(C2CCCN2C2CCSCC2)nc1 (configuration not stated)

1. -4.384
2. 99.07
3. 104.4
4. -13.61
5. -9.871
6. 112
7. -4.389
8. -12.25

The following compounds each have a reported value; give each one's Percent Effect.
1. Cc1cnn(CCNCc2nc(Cc3ccccc3)no2)c1
2. CC(C(=O)NCc1ccc(N2CCNC(=O)C2)cc1)c1cccs1 (configuration not stated)
3. O=C1CN(c2ccc(CNC(=O)NCc3ccoc3)cc2)CCN1

[-7.265, 88.68, 94.29]
